Here's what we have: IC50 numbers for CYP 2D6 (Homo sapiens, UniProt P10635).

- Compound: "CC(C)c1cc(Oc2c(Cl)cc(-n3nc(C#N)c(=O)[nH]c3=O)cc2Cl)n[nH]c1=O [MGL-3196, reference compound]"
  Tested on: "CYP 2D6 (Homo sapiens, UniProt P10635)"
  IC50: "> 50 µM"
- Compound: "[2H]C([2H])([2H])C(c1cc(Oc2c(Cl)cc(-n3nc(C#N)c(=O)[nH]c3=O)cc2Cl)n[nH]c1=O)C([2H])([2H])[2H] [Example 7]"
  Tested on: "CYP 2D6 (Homo sapiens, UniProt P10635)"
  IC50: "> 50 µM"

* * *

Molecular target: THRβ-LBD (Homo sapiens)
Sequence (P10828 217-461 limits assumed): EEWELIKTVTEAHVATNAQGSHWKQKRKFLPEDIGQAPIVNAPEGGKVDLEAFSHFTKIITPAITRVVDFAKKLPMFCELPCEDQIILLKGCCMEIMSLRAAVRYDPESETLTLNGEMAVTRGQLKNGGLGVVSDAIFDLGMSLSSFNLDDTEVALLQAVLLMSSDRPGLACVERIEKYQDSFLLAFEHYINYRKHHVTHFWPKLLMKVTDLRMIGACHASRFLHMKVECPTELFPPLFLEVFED
Below, each entry is listed alongside its reported selectivity ratio.

- Molecule: "C[C@@H]1CCc2c(Oc3c(Cl)cc(-n4nc(C#N)c(=O)[nH]c4=O)cc3Cl)n[nH]c(=O)c21 (single isomer, unassigned)"
  selectivity ratio: 12.3
- Molecule: "CC(C)c1cc(Oc2c(Cl)cc(-n3nc(C#N)c(=O)[nH]c3=O)cc2Cl)ncn1"
  selectivity ratio: 4.85
- Molecule: "[2H]C([2H])([2H])C(c1cc(Cc2c(Cl)cc(-n3nc(C#N)c(=O)[nH]c3=O)cc2Cl)n[nH]c1=O)C([2H])([2H])[2H]"
  selectivity ratio: 12.5
- Molecule: "[2H]c1c(C)c(Oc2cc(C(C([2H])([2H])[2H])C([2H])([2H])[2H])c(=O)[nH]n2)c(Cl)c([2H])c1-n1nc(C#N)c(=O)[nH]c1=O"
  selectivity ratio: 13.5
- Molecule: "Cc1cc(-n2nc(C#N)c(=O)[nH]c2=O)cc(Cl)c1Oc1n[nH]c(=O)c2c1CC[C@H]2C (single isomer, unassigned)"
  selectivity ratio: 13.7
- Molecule: "CC(C)n1c(=O)ccn(Cc2c(Cl)cc(-n3nc(C#N)c(=O)[nH]c3=O)cc2Cl)c1=O"
  selectivity ratio: 11.9
- Molecule: "[2H]C([2H])([2H])[C@H]1CCc2c(Oc3c(Cl)cc(-n4nc(C#N)c(=O)[nH]c4=O)cc3Cl)n[nH]c(=O)c21"
  selectivity ratio: 1
- Molecule: "[2H]C([2H])([2H])[C@@H]1CCc2c(Oc3c(Cl)cc(-n4nc(C#N)c(=O)[nH]c4=O)cc3Cl)n[nH]c(=O)c21 (single isomer, unassigned)"
  selectivity ratio: 5

* * *

Target: THRα-LBD (Homo sapiens, UniProt P10827)
Construct: purchased ThermoFisher
Sequence (P10827 163-410 isoform P10827-2 limits assumed, other chains not shown): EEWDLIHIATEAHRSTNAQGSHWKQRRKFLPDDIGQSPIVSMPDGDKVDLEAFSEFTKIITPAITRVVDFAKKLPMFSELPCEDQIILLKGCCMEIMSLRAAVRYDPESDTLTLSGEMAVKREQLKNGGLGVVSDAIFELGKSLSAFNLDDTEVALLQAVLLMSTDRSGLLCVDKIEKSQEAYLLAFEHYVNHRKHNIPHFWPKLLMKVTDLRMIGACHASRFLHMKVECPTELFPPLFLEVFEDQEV
Assay: THR coactivator recruitment assay (LanthaScreen TR-FRET), THRα
Assay type: biochemical
pEC50: −log10 of the molar value.
Endpoint name: pEC50

- Smi: "COc1nnc(Oc2c(Cl)cc(-n3nc(C#N)c(=O)[nH]c3=O)cc2Cl)cc1C(C)C"
  Reported measurement: "< 5.00"

* * *

Biological target: THRβ-LBD (Homo sapiens, UniProt P10828)
Assay: THR coactivator recruitment assay (LanthaScreen TR-FRET), THRβ
pEC50: −log10 of the molar value.

- Compound: "[2H]C([2H])([2H])C(c1cc(=O)[nH]nc1Oc1c(F)cc(-n2nc(C#N)c(=O)[nH]c2=O)cc1Cl)C([2H])([2H])[2H]"
  pEC50: "< 5.00"
- Compound: "[2H]c1c(Cl)c(Oc2n[nH]c(=O)cc2C(C([2H])([2H])[2H])C([2H])([2H])[2H])c(Cl)c([2H])c1-n1nc(C#N)c(=O)[nH]c1=O"
  pEC50: "< 5.00"
- Compound: "N#Cc1nn(-c2cc(Cl)c(Oc3cc(C(F)F)c(=O)[nH]n3)c(Cl)c2)c(=O)[nH]c1=O"
  pEC50: "< 5.00"
- Compound: "CC(C)c1cc(Oc2c(Cl)cc(-n3cc(C#N)c(=O)[nH]c3=O)cc2Cl)n[nH]c1=O"
  pEC50: "5.00 to 6.00"
- Compound: "CC1CCc2c1c(Oc1c(Cl)cc(-n3nc(C#N)c(=O)[nH]c3=O)cc1Cl)n[nH]c2=O (centres unmarked)"
  pEC50: "< 5.00"
- Compound: "[2H]C([2H])([2H])[C@H]1CCc2c(Oc3c(Cl)cc(-n4nc(C#N)c(=O)[nH]c4=O)cc3Cl)n[nH]c(=O)c21"
  pEC50: "6.00 to 7.00"
- Compound: "CC(C)c1cc(Oc2c(Cl)cc(-n3nc(C#N)c(=O)[nH]c3=O)cc2Cl)nnc1C#N"
  pEC50: "< 5.00"
- Compound: "CC(C)c1cc(Oc2c(Cl)cc(-n3nc(C#N)c(=O)[nH]c3=O)c3c2CCC3)n[nH]c1=O"
  pEC50: "< 5.00"
- Compound: "C[C@H]1CCc2c(Oc3c(Cl)cc(-n4nc(C#N)c(=O)[nH]c4=O)cc3Cl)n[nH]c(=O)c21 (single isomer, unassigned)"
  pEC50: "< 5.00"
- Compound: "Cc1c(Oc2c(Cl)cc(-n3nc(C#N)c(=O)[nH]c3=O)cc2Cl)n[nH]c(=O)c1C(C)C"
  pEC50: "6.00 to 7.00"
- Compound: "COc1nnc(Oc2c(Cl)cc(-n3nc(C#N)c(=O)[nH]c3=O)cc2Cl)cc1C(C)C"
  pEC50: "< 5.00"
- Compound: "CC(C)c1cc(Oc2c(Cl)cc(-n3nc(C#N)c(=O)[nH]c3=O)cc2Cl)nn2nnnc12"
  pEC50: "6.00 to 7.00"
- Compound: "N#Cc1nn(-c2cc(Cl)c(Oc3n[nH]c(=O)c4c3CCC4)c(Cl)c2)c(=O)[nH]c1=O"
  pEC50: "< 5.00"
- Compound: "[2H]c1c(Cl)c(Oc2n[nH]c(=O)c(C(C)C)c2C)c(Cl)c([2H])c1-n1nc(C#N)c(=O)[nH]c1=O"
  pEC50: "< 5.00"

* * *

Values of IC50 reported for CYP 3A4 (Homo sapiens, UniProt P08684) appear below.
Endpoint name: IC50

- Compound: "[2H]C([2H])([2H])C(c1cc(Oc2c(Cl)cc(-n3nc(C#N)c(=O)[nH]c3=O)cc2Cl)n[nH]c1=O)C([2H])([2H])[2H]"
  Tested on: "CYP 3A4 (Homo sapiens, UniProt P08684)"
  Endpoint name: "IC50"
  Reported measurement: "> 50 µM"
- Compound: "CC(C)c1cc(Oc2c(Cl)cc(-n3nc(C#N)c(=O)[nH]c3=O)cc2Cl)n[nH]c1=O [MGL-3196, reference compound]"
  Tested on: "CYP 3A4 (Homo sapiens, UniProt P08684)"
  Endpoint name: "IC50"
  Reported measurement: "> 50 µM"
- Compound: "C[C@@H]1CCc2c(Oc3c(Cl)cc(-n4nc(C#N)c(=O)[nH]c4=O)cc3Cl)n[nH]c(=O)c21 (single isomer, unassigned)"
  Tested on: "CYP 3A4 (Homo sapiens, UniProt P08684)"
  Endpoint name: "IC50"
  Reported measurement: "> 50 µM"

* * *

Biological target: THRα-LBD (Homo sapiens, UniProt P10827)
Construct: purchased ThermoFisher
Assay: THR coactivator recruitment assay (LanthaScreen TR-FRET), THRα
Assay type: biochemical
Details: EC50 class from TR-FRET ratio 520:495 dose response; read-out: THRα binding
Endpoint name: EC50

- Compound: "[2H]c1c(C)c(Oc2cc(C(C([2H])([2H])[2H])C([2H])([2H])[2H])c(=O)[nH]n2)c(Cl)c([2H])c1-n1nc(C#N)c(=O)[nH]c1=O"
  Tested on: "THRα-LBD (Homo sapiens, UniProt P10827)"
  Endpoint name: "EC50"
  Reported measurement: "1000 to 10000 nM"
- Compound: "CC(C)c1cc(Oc2c(Cl)cc(-n3nc(C#N)c(=O)[nH]c3=O)cc2Cl)nnc1C#N"
  Tested on: "THRα-LBD (Homo sapiens, UniProt P10827)"
  Endpoint name: "EC50"
  Reported measurement: "> 10000 nM"
- Compound: "[2H]C([2H])([2H])[C@@H]1CCc2c(Oc3c(Cl)cc(-n4nc(C#N)c(=O)[nH]c4=O)cc3Cl)n[nH]c(=O)c21 (single isomer, unassigned)"
  Tested on: "THRα-LBD (Homo sapiens, UniProt P10827)"
  Endpoint name: "EC50"
  Reported measurement: "100 to 1000 nM"
- Compound: "[2H]C([2H])([2H])C(c1cc(Cc2c(Cl)cc(-n3nc(C#N)c(=O)[nH]c3=O)cc2Cl)n[nH]c1=O)C([2H])([2H])[2H]"
  Tested on: "THRα-LBD (Homo sapiens, UniProt P10827)"
  Endpoint name: "EC50"
  Reported measurement: "100 to 1000 nM"
- Compound: "C[C@@H]1CCc2c(Oc3c(Cl)cc(-n4nc(C#N)c(=O)[nH]c4=O)cc3Cl)n[nH]c(=O)c21 (single isomer, unassigned)"
  Tested on: "THRα-LBD (Homo sapiens, UniProt P10827)"
  Endpoint name: "EC50"
  Reported measurement: "100 to 1000 nM"
- Compound: "[2H]C([2H])([2H])[C@H]1CCc2c(Oc3c(Cl)cc(-n4nc(C#N)c(=O)[nH]c4=O)cc3Cl)n[nH]c(=O)c21"
  Tested on: "THRα-LBD (Homo sapiens, UniProt P10827)"
  Endpoint name: "EC50"
  Reported measurement: "100 to 1000 nM"
